# EC50 values compiled below
SYSTEM: E. coli PBP3 (Escherichia coli (strain K12))
ASSAY EXPLANATION: E. coli PBP3 Bocillin-FL fluorescence polarization competition binding assay
TEST PARAMETERS: fluorescence polarization competition binding with Bocillin-FL; read-out: E. coli K12 PBP3 Potency
Counter-ions that a name gives are not always drawn.

As a guide, the following entries are already answered.
# MOLECULE, SYSTEM, EC50
data = [
    ("CCN1C[C@H](C)N(C(=O)NC(C(=O)N[C@H]2Cc3ccc(F)c(C(=O)O)c3OB2O)c2ncc(O)cc2F)C(=O)C1=O (stereo partly shown) [Example 208]", "E. coli PBP3 (Escherichia coli (strain K12))", "< 30 µM"),
    ("CCN1CCN(C(=O)NC(C(=O)N[C@H]2Cc3cccc(C(=O)O)c3OB2O)C2CCN(CC(N)=O)C2)C(=O)C1=O (stereo partly shown) [Example 57, trifluoroacetic acid salt]", "E. coli PBP3 (Escherichia coli (strain K12))", "> 500 µM"),
    ("CCN1CCN(C(=O)NC(C(=O)N[C@H]2Cc3ccc(Cl)c(C(=O)O)c3OB2O)c2ncc(O)cc2F)C(=O)C1=O (stereo partly shown) [Example 216]", "E. coli PBP3 (Escherichia coli (strain K12))", "< 30 µM"),
    ("CCN1CCN(C(=O)NC(C(=O)N[C@H]2Cc3cccc(C(=O)O)c3OB2O)c2ccc(O)c(O)c2Cl)C(=O)C1=O (stereo partly shown) [Example 37]", "E. coli PBP3 (Escherichia coli (strain K12))", "< 30 µM"),
    ("C[C@@H](O)[C@@H](NC(=O)N1CCN(CCF)C(=O)C1=O)C(=O)N[C@H]1Cc2ccc(F)c(C(=O)O)c2OB1O [Example 126]", "E. coli PBP3 (Escherichia coli (strain K12))", "> 500 µM"),
]

// field: EC50; key: CCN1CCN(C(=O)NC(C(=O)N[C@H]2Cc3ccc(F)c(C(=O)O)c3OB2O)c2ncc(O)cc2F)C(=O)C1=O (stereo partly shown) [Example 145] ; value = < 30 µM

response.value for NS(=O)(=O)c1ccc(C(NC(=O)N2CCN(CCF)C(=O)C2=O)C(=O)N[C@H]2Cc3cccc(C(=O)O)c3OB2O)cc1 (stereo partly shown) [Example 103] (field: EC50) = < 30 µM

Value of measured EC50 for the entry CCN1CCN(C(=O)NC(C(=O)N[C@H]2Cc3cccc(C(=O)O)c3OB2O)C(O)c2cccc(O)c2O)C(=O)C1=O (stereo partly shown) [Example 48] : > 500 µM

Looking up CCN1CCN(C(=O)NC(C(=O)N[C@H]2Cc3cccc(C(=O)O)c3OB2O)C2CCS(=O)(=O)C2)C(=O)C1=O (stereo partly shown) [Example 123] , I found its EC50 recorded as > 500 µM

molecule CCN1C[C@H](CO)N(C(=O)NC(C(=O)N[C@H]2Cc3cccc(C(=O)O)c3OB2O)c2ncc(O)cc2F)C(=O)C1=O (stereo partly shown) [Example 234] , EC50 observed: < 30 µM

###

SYSTEM: E. coli PBP3 (Escherichia coli (strain K12), UniProt P0AD68)
Sequence (P0AD68 whole entry): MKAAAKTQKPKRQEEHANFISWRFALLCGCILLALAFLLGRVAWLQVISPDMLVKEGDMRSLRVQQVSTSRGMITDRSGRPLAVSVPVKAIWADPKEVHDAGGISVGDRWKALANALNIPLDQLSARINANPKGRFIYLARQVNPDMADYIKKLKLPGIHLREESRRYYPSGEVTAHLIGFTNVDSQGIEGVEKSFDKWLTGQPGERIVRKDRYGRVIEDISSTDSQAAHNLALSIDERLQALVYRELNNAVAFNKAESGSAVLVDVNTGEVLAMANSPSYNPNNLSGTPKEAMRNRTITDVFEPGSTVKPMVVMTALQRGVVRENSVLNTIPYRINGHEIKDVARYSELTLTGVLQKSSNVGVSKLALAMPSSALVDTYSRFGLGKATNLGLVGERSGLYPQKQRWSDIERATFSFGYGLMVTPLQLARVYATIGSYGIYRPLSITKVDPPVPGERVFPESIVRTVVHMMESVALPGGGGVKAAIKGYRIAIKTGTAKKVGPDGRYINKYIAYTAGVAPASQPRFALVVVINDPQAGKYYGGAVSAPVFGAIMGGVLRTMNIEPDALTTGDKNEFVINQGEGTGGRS
ASSAY EXPLANATION: E. coli PBP3 Bocillin-FL fluorescence polarization competition binding assay
TEST PARAMETERS: fluorescence polarization competition binding with Bocillin-FL; read-out: E. coli K12 PBP3 Potency
Counter-ions that a name gives are not always drawn.
ATTRIBUTE MEASURED: EC50

Answered cases to consult:
# COMPOUND, EC50
data = [
    ("CCCN1CCN(C(=O)NC(C(=O)N[C@H]2Cc3cccc(C(=O)O)c3OB2O)c2ccc(O)cn2)C(=O)C1=O (stereo partly shown) [Example 134]", "< 30 µM"),
    ("CCN1CCN(C(=O)NC(C(=O)N[C@H]2Cc3cccc(C(=O)O)c3OB2O)c2ccc(O)c(O)c2F)C(=O)C1=O (stereo partly shown) [Example 70]", "< 30 µM"),
    ("O=C(O)c1c(F)ccc2c1OB(O)[C@@H](NC(=O)C(NC(=O)N1CCN(CCF)C(=O)C1=O)c1ncc(O)cc1F)C2 (stereo partly shown) [Example 183]", "< 30 µM"),
    ("CCN1C[C@H](CO)N(C(=O)NC(C(=O)N[C@H]2Cc3ccc(F)c(C(=O)O)c3OB2O)c2ccc(O)c(O)c2Cl)C(=O)C1=O (stereo partly shown) [Example 237]", "< 30 µM"),
    ("CCN1CCN(C(=O)N[C@@H](C(=O)N[C@H]2Cc3cccc(C(=O)O)c3OB2O)[C@H](O)C(F)F)C(=O)C1=O [Example 173]", "> 500 µM"),
]

Entry CCN1CCN(C(=O)N[C@H](CNS(=O)(=O)C(F)(F)F)C(=O)N[C@H]2Cc3cccc(C(=O)O)c3OB2O)C(=O)C1=O [Example 75] — recorded EC50 = > 500 µM

What the record says about CCN1CCN(C(=O)N[C@@H](C(=O)N[C@H]2Cc3cccc(C(=O)O)c3OB2O)c2ccc(S(N)(=O)=O)c(O)c2)C(=O)C1=O [Example 167] : EC50 is < 30 µM

Query CCN1CCN(C(=O)N[C@H](CCN)C(=O)N[C@H]2Cc3cccc(C(=O)O)c3OB2O)C(=O)C1=O [Example 17, trifluoroacetic acid salt] yields EC50 of > 500 µM

The compound listed as CCN1CCN(C(=O)NC(C(=O)N[C@H]2Cc3cccc(C(=O)O)c3OB2O)c2ccc(O)c([N+](=O)[O-])c2)C(=O)C1=O (stereo partly shown) [Example 247] shows EC50 equal to < 30 µM

Measured EC50, CCN1CCN(C(=O)NC(C(=O)N[C@H]2Cc3cccc(C(=O)O)c3OB2O)C2CCCC2)C(=O)C1=O (stereo partly shown) [Example 116] : < 30 µM

Briefly, EC50 measured for CCN1CCN(C(=O)N[C@H](C(=O)N[C@H]2Cc3cccc(C(=O)O)c3OB2O)[C@H](C)OC)C(=O)C1=O [Example 147] : > 500 µM

Please fill in: EC50 reported for CCN1CCN(C(=O)N[C@@H](C(=O)N[C@H]2Cc3ccc(F)c(C(=O)O)c3OB2O)c2ccc(O)c(F)c2)C(=O)C1=O [Example 161] = < 30 µM

Short answer for CCN1CCN(C(=O)NC(C(=O)N[C@H]2Cc3cccc(C(=O)O)c3OB2O)c2nc(N)sc2F)C(=O)C1=O (stereo partly shown) [Example 205] : EC50 was < 30 µM

###

Tested on: A. baumannii ATCC 19606
ASSAY EXPLANATION: Broth microdilution MIC, A. baumannii ATCC 19606
Assay type: cell-based
TEST PARAMETERS: Acinetobacter baumannii, ATCC19606; A. baumannii ATCC 19606, broth microdilution; read-out: MIC A. baumannii ATCC 19606
ATTRIBUTE MEASURED: MIC

Please review the following examples before continuing.
# COMPOUND, SYSTEM, OBSERVED RESULT
measured = [
    ("CC[C@H]1CN(CC)C(=O)C(=O)N1C(=O)NC(C(=O)N[C@H]1Cc2cccc(C(=O)O)c2OB1O)c1ncc(O)cc1F (some centres unmarked)", "A. baumannii ATCC 19606", "> 128 µg/mL"),
    ("CCN1CCN(C(=O)NC(C(=O)N[C@H]2Cc3cccc(C(=O)O)c3OB2O)c2ncc(O)cc2Cl)C(=O)C1=O (some centres unmarked)", "A. baumannii ATCC 19606", "> 128 µg/mL"),
    ("CCN1CCN(C(=O)NC(C(=O)N[C@H]2Cc3cccc(C(=O)O)c3OB2O)c2nc(N)sc2F)C(=O)C1=O (some centres unmarked)", "A. baumannii ATCC 19606", "32 to 64 µg/mL"),
]

Measured on A. baumannii ATCC 19606, CNCCN1CCN(C(=O)NC(C(=O)N[C@H]2Cc3cccc(C(=O)O)c3OB2O)c2ccc(O)c(O)c2Cl)C(=O)C1=O (some centres unmarked) has a documented MIC of 0.5 to 1 µg/mL

Lab entry: A. baumannii ATCC 19606 assay, compound NS(=O)(=O)c1ccc(C(NC(=O)N2CCN(CCF)C(=O)C2=O)C(=O)N[C@H]2Cc3ccc(F)c(C(=O)O)c3OB2O)cc1 (some centres unmarked) , MIC = > 128 µg/mL

Log: A. baumannii ATCC 19606, compound NCCN1CCN(C(=O)N[C@@H](C(=O)N[C@H]2Cc3ccc(F)c(C(=O)O)c3OB2O)c2ccc(O)c(O)c2Cl)C(=O)C1=O , MIC = < 0.25 µg/mL

Observed MIC, A. baumannii ATCC 19606, CC(=O)NCCN1CCN(C(=O)NC(C(=O)N[C@H]2Cc3cccc(C(=O)O)c3OB2O)c2ccc(O)c(O)c2Cl)C(=O)C1=O (some centres unmarked) : 0.5 to 1 µg/mL

Readout MIC for CCN1CCN(C(=O)N[C@@H](C(=O)N[C@H]2Cc3ccc(F)c(C(=O)O)c3OB2O)c2ccc(O)c(F)c2)C(=O)C1=O , test system A. baumannii ATCC 19606, was > 128 µg/mL

I looked up CCN1CCN(C(=O)NC(C(=O)N[C@H]2Cc3ccc(Cl)c(C(=O)O)c3OB2O)c2ccc(O)c(O)c2Cl)C(=O)C1=O (some centres unmarked) and its MIC for A. baumannii ATCC 19606 was 0.5 to 1 µg/mL
